Experiment: protein stability index of a GFP-peptide fusion (GPS, HEK-293T) (PSI 1-6); higher = more stable;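 note: 24-mer peptide tiles fused after GFP, lentivirally expressed, FACS-sorted into six equal bins by GFP/DsRed ratio, decoded by Illumina sequencing, PSI is the read-weighted mean bin number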
Conditions: treatment: DMSO; c terminus: a fixed tail appended
measureName: protein stability index
Answer with a bare number; do not write a unit.

Use these answered entries as a reference point.
orderedResidues	observed
TAWTEACQVEVRLLLAYNSSARIP [INTS4]	3.03
LRLLQHTPSARRNYRIAGARLMRS [C6orf223]	2.99

# input for lookup
*Q* Requested field: protein stability index. Item: IPQLEDVSNFLKERTGFSIRPVAG [TPH1]
*A* 2.98

###

Test: protein stability index of a GFP-peptide fusion (GPS, HEK-293T) (PSI 1-6); higher = more stable
Conditions: treatment: DMSO; c terminus: a fixed tail appended
measureName: protein stability index
Answer with a bare number; do not write a unit.

Use these answered entries as a reference point.
orderedResidues	protein stability index
SQQQNMMQDYVRTGTYQRAILQNH [CARM1]	3.21
CNDGRIVIWDFLTRGIAKIISAHI [RBBP5]	3.03
MKDSMSAAEVGTGQYATTKGISQT [EPB41L3]	4.75
ENARSGAEAEPEDQDEGEWGLDQE [ZBED1]	5.62

# input for lookup
*Q* Requested field: protein stability index. Item: ALDLAREFLPQGPVAMRVAKLAIN [AUH]
*A* 2.89
